# IC50 listing for each entry below
target: human BRD4 bromodomain II (Homo sapiens); construct: human BRD4 bromodomain II [based on Genbank NM_058243, residues 349-460]; host or cells: E. coli; assay: Bromodomain binding assay (AlphaScreen), BRD4 BDII; settings: AlphaScreen assay, Table C2; read-out: BRD4 BDII IC50

Worked examples, 6 molecules total:
molecule="Cn1ccn(-c2ccc(-c3cc(F)cc(-c4cccc(N5CC[C@](C)(N)C5)c4)c3O)cc2Cl)c1=O [Example 749]" value="1 to 10 nM"
molecule="CN1CCC2(CC(=O)N(c3cc(-c4cc(F)cc(-c5ccc(-n6ccn(C)c6=O)c(Cl)c5)c4O)ccn3)C2)C1 (stereo not shown) [Example 712]" value="0.01 to 1 nM"
molecule="CC(=O)Nc1ccc(-c2cccc(-c3cccc(-c4c[nH]cn4)c3)c2O)cc1F [Example 229]" value="10 to 100 nM"
molecule="CC(=O)Nc1ccc(-c2cccc(-c3ccc(Oc4ccccc4)cc3)c2O)cc1F [Example 90]" value="> 100 nM"
molecule="C[C@@H]1CN(c2cc(-c3cc(F)cc(-c4ccc(-n5ccn(C)c5=O)c(Cl)c4)c3O)cc3[nH]ccc23)CCN1 [Example 551]" value="0.01 to 1 nM"
molecule="Cc1cc(-c2cc(F)cc(-c3ccnc(N4CCNCC4)c3)c2O)cc(Cl)c1N1CCCC1=O [Example 386]" value="> 100 nM"

// below: IC50 requested for another molecule
Challenge: Can you share its IC50? I mean this molecule: Cn1ccn(-c2ccc(-c3cc(F)cc(-c4ccnc(N5CCN(CCC6CC6)CC5)c4)c3O)cc2Cl)c1=O [Example 681]
Response given: 0.01 to 1 nM
